# METHOD NOTES: solubility of each compound in a solvent
# Format: physicochemical
# COND: Acetone, at 20° C., % on weight
PROPERTY LABEL: Solubility in Acetone (%)

COMPOUND | PROPERTY LABEL | VALUE OBSERVED
CC1CN=C(c2ccc3c(c2)C(=O)C(c2nc4ccccc4cc2O)C3=O)O1 (centres unmarked) | Solubility in Acetone | 3.48

a = CCCCOC(=O)c1ccc2c(c1)C(=O)C(c1nc3ccc(C)cc3cc1O)C2=O (centres unmarked) [J, reference compound]
b = CCCCCCCCOC(=O)c1ccc2c(c1)C(=O)C(c1nc3ccc(CCCC)cc3cc1O)C2=O (centres unmarked) [I, reference compound]
c = CCC1(CO)COC(c2ccc3c(c2)C(=O)C(c2nc4ccc(C(C)C)cc4cc2O)C3=O)=N1 (centres unmarked)
d = CCCCN(CCCC)C(=O)c1ccc2c(c1)C(=O)C(c1nc3ccc(C(C)C)cc3cc1O)C2=O (centres unmarked)
e = CC(C)c1ccc2nc(C3C(=O)c4ccccc4C3=O)c(O)cc2c1
Your job: order these 5 records by Solubility in Acetone, ascending. Please express your ranking as an ordered list of the labels. a, b, e, c, d
